These measurements were taken from PubChem BioAssay (NCI).

# System: NCI-H522 lung
# assay_remarks: NCI-60 one-dose screen, 48 h
# cond: 10 µM
About 83,000 compounds went through this panel and 20% of them were active in at least one assay; those are over-represented in the sample as a whole. Active and inactive are the calls of the source. How the source made its calls: active means growth percent below 10; inactive means the rest.
Classes used: active, inactive

CC(C)c1ccc(C(C)C(=O)N(CC2=C(C(C)c3ccccn3)c3ccccc3C2)C(C)C)cc1 (centres undefined)
inactive
Cc1cc(CSc2ccccc2C(=O)N2CC=C(c3ccccc3)CC2)on1
inactive
Nc1c(Br)cc(Br)c2c1[nH]c(=O)c1ccccc12
inactive
Cc1ccc(Cl)cc1NC(=O)CCl
inactive
O=C(Nc1ccc(OS(=O)(=O)c2ccccc2)cc1)C1CCCCC1
inactive
c1cnc2[nH]cc(-c3nc(-c4ccsc4)cs3)c2c1
inactive
CC(=O)Nc1ccc2c(c1)C(=O)c1cccc(C(=O)O)c1-2
inactive
Cc1[nH]c2ccccc2c1/C=N/Nc1ncnc2sc3c(c12)CCN(CC(=O)OC(C)(C)C)C3
inactive
CN(C)CCOc1cccc(-c2nc3sccn3c2-c2ccnc(S(C)(=O)=O)n2)c1
inactive
CN(C)c1ccc(/C=N/NC(=O)c2ccccc2Nc2cccc(C(F)(F)F)c2)cc1
inactive
CC(C)(C)c1ccc(S(=O)(=O)N[C@H]2CC[C@H]3[C@@H]4CCc5cc(O)ccc5[C@H]4CC[C@]23C)cc1
inactive
CC(CN(C)C)Oc1ccc(OC(C)CN(C)C)c2c1C(=O)c1ccccc1C2=O (centres undefined)
inactive
Cc1ccc(NCCN(C)CC(C)O)c2c(=O)c3ccc(Cl)cc3sc12 (centres undefined)
inactive
COc1ccc(-c2cc(-c3ccc(Cl)cc3)nc(SCCCC(=O)NO)n2)cc1OC
active
CNC(=O)c1cc(Oc2ccc3c(c2)sc2nc(-c4ccc(N)cc4)cn23)ccn1
active
CCCN1CN2C(=O)N3CN(CCC)CN4C(=S)N(C1)C2C34 (centres undefined)
inactive
CCC(c1ccc(OC)cc1)C(CC)c1ccc(O)c(CN2CCN(C)CC2)c1 (centres undefined)
inactive
OCC1OC(n2ccc3c(NO)ncnc32)C(O)C1O (centres undefined)
active
CCCCN(CCCC)C(=O)[C@H](CC)[C@@H]1CC[C@@H](C)[C@@H]([C@H](C)[C@@H](O)[C@@H](C)C(=O)[C@H](CC)C2O[C@]3(C=C[C@@H](O)[C@]4(CC[C@@](C)([C@H]5CC[C@](O)(CC)[C@H](C)O5)O4)O3)[C@H](C)C[C@@H]2C)O1 (some centres undefined)
active
c1ccc(CSc2ncccc2-c2nnc(SCCN3CCOCC3)o2)cc1
inactive
COc1cc2cc(Oc3ccc(NC(=O)Nc4ccc(Cl)c(C(F)(F)F)c4)cc3)c(C)nc2cc1OC
active
COc1ccccc1N1CCCSC1=Nc1ccccc1
inactive
O=C1CSC(=S)N1/N=C/c1ccc(Cl)s1
inactive
Cc1ccc(C(=O)C2C(=O)C3CCC2C3)cc1 (centres undefined)
inactive
O=C(N/N=C/c1ccc(Cl)cc1)c1ccccc1Nc1cccc(C(F)(F)F)c1
inactive
Cc1ccc(NCCNCC(C)(C)O)c2c(=O)c3ccc(Cl)cc3sc12
inactive
C/C(=C/CCC(C)[C@@H]1CC[C@]2(C)C3=C(CC[C@@]12C)[C@@]1(C)CCC(=O)C(C)(C)[C@@H]1CC3)C(=O)O (some centres undefined)
active
CC(C)(C)OC(=O)N1CCc2c(sc3ncnc(N/N=C/c4cccc(Br)c4)c23)C1
inactive
CC(CN(C)C)Oc1ccccc1NC1=C(Cl)C(=O)C(Nc2ccccc2OC(C)CN(C)C)=C(Cl)C1=O (centres undefined)
active
COc1ccc([C@H]2[C@H](C(=O)Nc3cccnc3)c3ccccc3C(=O)N2c2ccccc2)cc1
inactive
COc1nc2c(c(=O)n1C)CN(c1ccccc1)C(=O)C(C)N2 (centres undefined)
inactive
COc1cc(C(=O)/C(C)=C/c2c[nH]c3ccccc23)cc(OC)c1OC
active
NC1=CC(=O)C(=O)c2cccnc21
inactive
Cc1c(Cl)cccc1NC(=O)CN1CCOCC1
inactive
